Would you kindly list Activity for each of these molecules?
Target: Muscarinic acetylcholine receptor M2 (Homo sapiens)
Sequence (whole entry): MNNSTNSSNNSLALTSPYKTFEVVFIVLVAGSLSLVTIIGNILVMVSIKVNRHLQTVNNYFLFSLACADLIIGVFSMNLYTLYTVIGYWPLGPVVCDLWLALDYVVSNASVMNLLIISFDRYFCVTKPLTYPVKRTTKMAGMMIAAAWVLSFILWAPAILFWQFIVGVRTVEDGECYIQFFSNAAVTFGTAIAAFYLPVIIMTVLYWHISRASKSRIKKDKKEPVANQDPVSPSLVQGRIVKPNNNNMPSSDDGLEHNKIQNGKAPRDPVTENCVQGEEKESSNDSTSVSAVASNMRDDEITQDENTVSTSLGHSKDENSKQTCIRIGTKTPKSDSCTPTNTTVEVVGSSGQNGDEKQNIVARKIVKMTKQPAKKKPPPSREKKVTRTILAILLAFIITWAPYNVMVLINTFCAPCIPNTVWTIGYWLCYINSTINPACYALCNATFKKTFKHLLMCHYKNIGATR
Assay: Agonist activity at human muscarinic M2 acetylcholine receptor expressed in CHO cells co-expressing Galpha16 assessed as calcium mobilization at 0.3 uM by FLIPR assay
Format: functional, cell-based
// units = %; emit number, no label

Activity lookup needed for CCOC(=O)N1[C@@H]2CC[C@H]1C[C@H](CN1CC[C@@H](N3Cc4ccccc4NC3=O)C1)C2 , thanks. 1

Would you mind doing CCOC(=O)N1CCC(N2CCC(N3Cc4ccccc4NC3=O)CC2)CC1 as well? 66

Follow-up item: CCOC(=O)N1CCC(CN2CCC(N3Cc4ccccc4NC3=O)CC2)CC1 39

Again, but for CCOC(=O)N1CCC(CN2CC[C@H](N3Cc4ccccc4NC3=O)C2)CC1 2

Try CCOC(=O)N1CCC(CN2CC[C@@H](N3Cc4ccccc4NC3=O)C2)CC1 next. 53

Same again, this time with CCOC(=O)N1CCC(CN2CC(N3Cc4ccccc4NC3=O)C2)CC1 17

Next molecule: CCOC(=O)N1[C@@H]2CC[C@H]1C[C@H](CN1CC(N3Cc4ccccc4NC3=O)C1)C2 12
